targetOfAssay: T1, monkey PRLR on HEK293/mfPRLR cells (Macaca fascicularis, UniProt A0A2K5WXK1)
T1 construct: HA; expressed in transfected cells; host or cells: HEK293
T1 sequence (A0A2K5WXK1 25-619): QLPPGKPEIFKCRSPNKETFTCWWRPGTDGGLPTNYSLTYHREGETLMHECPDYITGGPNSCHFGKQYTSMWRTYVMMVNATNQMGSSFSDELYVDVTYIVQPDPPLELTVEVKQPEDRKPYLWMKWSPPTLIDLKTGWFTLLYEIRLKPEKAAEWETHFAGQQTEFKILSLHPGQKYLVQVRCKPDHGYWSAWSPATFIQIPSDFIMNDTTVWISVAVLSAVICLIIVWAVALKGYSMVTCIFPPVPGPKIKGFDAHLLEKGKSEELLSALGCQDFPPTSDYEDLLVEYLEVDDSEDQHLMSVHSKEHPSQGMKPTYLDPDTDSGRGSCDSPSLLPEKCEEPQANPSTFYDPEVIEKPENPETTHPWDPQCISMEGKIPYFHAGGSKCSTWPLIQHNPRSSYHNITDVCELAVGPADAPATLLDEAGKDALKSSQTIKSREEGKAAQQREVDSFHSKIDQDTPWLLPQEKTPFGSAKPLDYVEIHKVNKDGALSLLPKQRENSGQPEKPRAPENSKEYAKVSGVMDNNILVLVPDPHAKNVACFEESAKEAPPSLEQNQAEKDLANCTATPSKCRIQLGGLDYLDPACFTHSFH
method: FACS cell surface binding
quantityMeasured: FACS Cell Binding (Fold Above Background)
Use Fold Above Background as the unit, but write only the number.

As a guide, the following entries are already answered.
# molecule, testResult
data = [
    ("H1H6953N: anti-PRLR antibody, human IgG1 Fc form of H1M6953N of Table 1; HCVR/LCVR SEQ ID NOs 274/282 (antibody, V domains shown) VH: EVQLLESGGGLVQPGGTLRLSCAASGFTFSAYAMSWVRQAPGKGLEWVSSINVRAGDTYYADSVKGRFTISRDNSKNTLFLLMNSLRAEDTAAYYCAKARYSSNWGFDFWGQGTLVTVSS VL: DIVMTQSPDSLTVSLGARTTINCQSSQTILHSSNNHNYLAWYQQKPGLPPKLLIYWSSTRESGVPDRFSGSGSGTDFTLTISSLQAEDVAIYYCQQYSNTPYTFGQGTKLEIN", 29),
    ("H1H6765P: fully human anti-PRLR antibody, human IgG1 Fc; HCVR/LCVR SEQ ID NOs 18/26 (antibody, V domains shown) VH: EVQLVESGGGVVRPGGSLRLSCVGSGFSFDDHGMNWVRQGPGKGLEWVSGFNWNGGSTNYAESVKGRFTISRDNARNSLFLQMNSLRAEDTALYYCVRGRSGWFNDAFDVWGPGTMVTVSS VL: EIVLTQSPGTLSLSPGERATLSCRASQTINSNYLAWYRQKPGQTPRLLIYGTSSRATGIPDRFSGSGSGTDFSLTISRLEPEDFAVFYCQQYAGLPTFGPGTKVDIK", 27),
    ("H1H6790P: fully human anti-PRLR antibody, human IgG1 Fc; HCVR/LCVR SEQ ID NOs 114/122 (antibody, V domains shown) VH: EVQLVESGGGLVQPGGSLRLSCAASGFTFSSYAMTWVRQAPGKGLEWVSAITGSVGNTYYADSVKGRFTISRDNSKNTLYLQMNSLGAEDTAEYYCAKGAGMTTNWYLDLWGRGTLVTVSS VL: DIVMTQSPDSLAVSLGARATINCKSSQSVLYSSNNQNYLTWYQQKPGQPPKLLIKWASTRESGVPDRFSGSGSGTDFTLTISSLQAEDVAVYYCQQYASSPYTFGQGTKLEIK", 24),
]

Item: H1H6800P: fully human anti-PRLR antibody, human IgG1 Fc; HCVR/LCVR SEQ ID NOs 194/202 (antibody, V domains shown) VH: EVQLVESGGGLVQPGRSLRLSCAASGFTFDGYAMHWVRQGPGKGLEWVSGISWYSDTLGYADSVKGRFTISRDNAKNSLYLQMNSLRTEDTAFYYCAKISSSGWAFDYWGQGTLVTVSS VL: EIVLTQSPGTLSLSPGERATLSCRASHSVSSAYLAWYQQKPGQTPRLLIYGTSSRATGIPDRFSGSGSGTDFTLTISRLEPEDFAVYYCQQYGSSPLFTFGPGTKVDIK | FACS Cell Binding: 29

Item: H1H6976N: anti-PRLR antibody, human IgG1 Fc form of H2M6976N of Table 1; HCVR/LCVR SEQ ID NOs 386/394 (antibody, V domains shown, human IgG1 Fc) VH: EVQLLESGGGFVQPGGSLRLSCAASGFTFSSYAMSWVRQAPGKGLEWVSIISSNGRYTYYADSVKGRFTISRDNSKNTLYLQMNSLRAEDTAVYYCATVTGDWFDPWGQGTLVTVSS VL: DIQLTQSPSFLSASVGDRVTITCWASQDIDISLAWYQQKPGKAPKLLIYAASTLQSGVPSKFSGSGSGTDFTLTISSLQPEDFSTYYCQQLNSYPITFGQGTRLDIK | FACS Cell Binding: 29

Item: H1H6959N2: anti-PRLR antibody, human IgG1 Fc form of H2M6959N2 of Table 1; HCVR/LCVR SEQ ID NOs 306/314 (antibody, V domains shown) VH: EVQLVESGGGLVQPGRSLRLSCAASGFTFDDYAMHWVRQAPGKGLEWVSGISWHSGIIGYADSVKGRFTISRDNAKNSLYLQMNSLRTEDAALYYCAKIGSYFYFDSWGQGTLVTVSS VL: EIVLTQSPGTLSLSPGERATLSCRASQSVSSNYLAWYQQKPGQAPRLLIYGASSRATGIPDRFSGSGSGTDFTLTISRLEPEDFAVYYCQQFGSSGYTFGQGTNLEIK | FACS Cell Binding: 11

Item: H1H6793P: fully human anti-PRLR antibody, human IgG1 Fc; HCVR/LCVR SEQ ID NOs 146/154 (antibody, V domains shown) VH: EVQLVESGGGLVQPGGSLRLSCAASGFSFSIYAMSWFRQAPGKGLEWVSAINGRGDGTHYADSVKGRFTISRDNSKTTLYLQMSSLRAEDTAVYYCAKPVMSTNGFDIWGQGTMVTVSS VL: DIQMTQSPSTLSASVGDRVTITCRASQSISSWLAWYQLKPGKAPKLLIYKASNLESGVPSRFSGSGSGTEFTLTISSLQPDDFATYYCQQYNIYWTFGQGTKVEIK | FACS Cell Binding: 32

Item: H1H6958N2: anti-PRLR antibody, receptor blocking, human IgG1 Fc form of H2M6958N2 of Table 1; HCVR/LCVR SEQ ID NOs 290/298 (antibody, V domains shown) VH: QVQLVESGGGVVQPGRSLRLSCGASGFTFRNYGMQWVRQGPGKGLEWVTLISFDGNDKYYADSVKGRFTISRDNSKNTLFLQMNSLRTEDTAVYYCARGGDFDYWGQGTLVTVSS VL: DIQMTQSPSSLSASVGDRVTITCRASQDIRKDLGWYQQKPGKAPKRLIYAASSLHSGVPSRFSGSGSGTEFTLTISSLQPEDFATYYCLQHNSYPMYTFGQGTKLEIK | FACS Cell Binding: 30
